Target: HTR2B (Homo sapiens)
Construct: purchased Promega (in-house HiBiT-GPCR construct library, NanoBRET)
Sequence (P41595 whole entry): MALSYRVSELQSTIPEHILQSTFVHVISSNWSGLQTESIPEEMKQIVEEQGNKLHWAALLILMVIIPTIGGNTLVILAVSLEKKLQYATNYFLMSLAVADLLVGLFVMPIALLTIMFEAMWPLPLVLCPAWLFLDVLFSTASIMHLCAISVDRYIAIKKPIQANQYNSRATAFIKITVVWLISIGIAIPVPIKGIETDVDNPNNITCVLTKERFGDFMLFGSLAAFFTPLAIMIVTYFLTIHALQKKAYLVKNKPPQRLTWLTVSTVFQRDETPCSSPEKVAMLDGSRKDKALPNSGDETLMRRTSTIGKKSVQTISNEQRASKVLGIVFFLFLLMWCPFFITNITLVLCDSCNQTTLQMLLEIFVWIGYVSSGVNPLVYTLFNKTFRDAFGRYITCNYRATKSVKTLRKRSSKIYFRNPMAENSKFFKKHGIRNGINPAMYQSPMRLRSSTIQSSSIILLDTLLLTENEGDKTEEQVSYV
Test: NanoBRET screen HiBiT-HTR2B in HEK293
Type: binding
Details: HTR2B; tracer 1μM
// criterion not met strictly below 1 in NanoBRET Fold Response; criterion met otherwise

# bool: NanoBRET Fold Response of N#CN=C(NCCCOc1cccc(CN2CCCCC2)c1)NCCNC(=O)CCOCCOCCOCCOCCNC(=O)CCc1ccc2n1[B-](F)(F)[N+]1=C(c3ccc[nH]3)C=CC1=C2 >= 1
criterion not met

Item CCCn1c(=O)c2[nH]c(-c3ccc(OCC(=O)NCCNC(=O)CCOCCNC(=O)c4ccc(CNC(=O)CCc5ccc6n5[B-](F)(F)[N+]5=C(c7ccc[nH]7)C=CC5=C6)cc4)cc3)nc2n(CCC)c1=O with NanoBRET Fold Response of 1 or above?
criterion not met

Check if NanoBRET Fold Response >= 1 (inclusive). Item: Cc1nc2n(c(=O)c1CCN1CCC(c3noc4cc(F)ccc34)CC1)CCCC2OC(=O)NCCOCCOCCOCCOCCNC(=O)CCc1ccc2n1[B-](F)(F)[N+]1=C(c3ccc[nH]3)C=CC1=C2 (stereo not shown)
criterion met

Form field: NanoBRET Fold Response at least 1? Entry: O=C(CCOCCOCCOCCOCCNC(=O)CCc1ccc2n1[B-](F)(F)[N+]1=C(c3ccc[nH]3)C=CC1=C2)NCCCN1CCN(C2=Nc3ccccc3Oc3ccc(Cl)cc32)CC1
criterion met

Quick check: does CC(C)N(CC[C@H](c1ccccc1)c1cc(CCNC(=O)c2ccc(CNC(=O)CCc3ccc4n3[B-](F)(F)[N+]3=C(c5ccc[nH]5)C=CC3=C4)cc2)ccc1O)C(C)C have NanoBRET Fold Response greater than or equal to 1?
criterion met

Determine whether measured NanoBRET Fold Response meets or exceeds 1 for O=C(CCc1ccc2n1[B-](F)(F)[N+]1=C(c3ccc[nH]3)C=CC1=C2)NCCOCCOCCNC(=O)OCCOCCN1CCN(C2=Nc3ccccc3Sc3ccccc32)CC1
criterion met

API: above_or_equal(metric=NanoBRET Fold Response, cutoff=1) for item Cc1cc2c(s1)Nc1ccccc1N=C2N1CCN(CCCNC(=O)CCOCCOCCOCCOCCNC(=O)CCc2ccc3n2[B-](F)(F)[N+]2=C(c4ccc[nH]4)C=CC2=C3)CC1
criterion met

Test whether the compound COc1ccccc1N1CCN(CCCCN2C(=O)c3ccc(CNC(=O)CCOCCNC(=O)c4ccc(CNC(=O)CCc5ccc6n5[B-](F)(F)[N+]5=C(c7ccc[nH]7)C=CC5=C6)cc4)cc3C2=O)CC1 records NanoBRET Fold Response of 1 or higher.
criterion not met

Identify whether the reported NanoBRET Fold Response of the following compound is 1 or greater: CC(C)N(CC[C@H](c1ccccc1)c1cc(CCNC(=O)CCOCCOCCOCCOCCNC(=O)CCc2ccc3n2[B-](F)(F)[N+]2=C(c4ccc[nH]4)C=CC2=C3)ccc1O)C(C)C
criterion not met

The reported numbers originate from paper PMC8151276.
